- target-of-assay: F508delCFTR (Homo sapiens, UniProt P13569, DEL508-508)
- Construct: expressed in transfected cells; host or cells: CFBE41o- human lung-derived epithelial cells (CFBE4lo-F508delCFTR-HRP), doxycycline-inducible
- Sequence (P13569 with tags, fused parts or gaps DEL508-508): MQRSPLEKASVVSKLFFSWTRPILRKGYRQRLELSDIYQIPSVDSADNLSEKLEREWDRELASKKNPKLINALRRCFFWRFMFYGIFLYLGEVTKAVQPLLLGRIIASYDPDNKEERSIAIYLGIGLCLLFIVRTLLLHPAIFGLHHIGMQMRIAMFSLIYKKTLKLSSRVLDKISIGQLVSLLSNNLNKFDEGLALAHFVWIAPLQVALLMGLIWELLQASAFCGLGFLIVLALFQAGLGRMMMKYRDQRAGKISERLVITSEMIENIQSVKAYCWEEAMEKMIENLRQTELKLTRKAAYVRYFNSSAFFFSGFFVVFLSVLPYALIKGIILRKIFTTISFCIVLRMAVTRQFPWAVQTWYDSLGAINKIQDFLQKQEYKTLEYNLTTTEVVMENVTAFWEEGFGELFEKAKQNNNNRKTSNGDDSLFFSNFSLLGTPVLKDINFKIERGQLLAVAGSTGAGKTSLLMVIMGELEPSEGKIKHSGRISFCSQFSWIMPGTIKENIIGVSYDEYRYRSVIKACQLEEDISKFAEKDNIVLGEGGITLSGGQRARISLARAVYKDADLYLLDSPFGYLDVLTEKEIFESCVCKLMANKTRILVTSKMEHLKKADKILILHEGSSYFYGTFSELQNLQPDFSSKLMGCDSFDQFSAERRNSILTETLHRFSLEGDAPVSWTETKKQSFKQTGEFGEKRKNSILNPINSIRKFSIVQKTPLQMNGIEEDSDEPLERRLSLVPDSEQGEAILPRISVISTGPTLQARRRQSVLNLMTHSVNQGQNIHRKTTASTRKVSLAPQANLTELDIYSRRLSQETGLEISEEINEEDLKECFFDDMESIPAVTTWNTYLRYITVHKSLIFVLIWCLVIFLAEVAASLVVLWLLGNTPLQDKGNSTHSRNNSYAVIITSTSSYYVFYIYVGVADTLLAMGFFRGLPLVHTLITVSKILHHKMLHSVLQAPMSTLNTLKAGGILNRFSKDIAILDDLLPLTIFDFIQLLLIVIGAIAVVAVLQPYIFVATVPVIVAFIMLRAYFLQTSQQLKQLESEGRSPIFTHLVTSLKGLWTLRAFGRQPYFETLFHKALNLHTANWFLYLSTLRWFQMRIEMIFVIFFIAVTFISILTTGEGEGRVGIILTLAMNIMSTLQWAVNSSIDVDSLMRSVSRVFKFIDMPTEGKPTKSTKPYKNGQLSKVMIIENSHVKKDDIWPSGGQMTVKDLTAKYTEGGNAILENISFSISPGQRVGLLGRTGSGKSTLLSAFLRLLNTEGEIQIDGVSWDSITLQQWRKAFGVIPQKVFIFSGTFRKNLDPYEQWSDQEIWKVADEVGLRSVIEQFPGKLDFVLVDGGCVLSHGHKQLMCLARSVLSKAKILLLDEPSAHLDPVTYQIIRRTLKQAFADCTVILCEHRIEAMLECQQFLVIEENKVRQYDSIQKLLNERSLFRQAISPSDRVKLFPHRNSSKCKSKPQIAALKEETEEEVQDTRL
- assay-remarks: Cell Surface Expression-Horse Radish Peroxidase (CSE-HRP) Assay
- Assay type: cell-based
- details: with co-corrector (2 μM of 3-[(2R,4R)-4-({[1-(2,2-difluoro-1,3-benzodioxol-5-yl)cyclopropyl]carbonyl}amino)-7-methoxy-3,4-dihydro-2H-chromen-2-yl]benzoic acid); read-out: EC50 (with co-corrector)
Listed compounds paired with reported EC50

Field: example entries. Status: answers known.
- compound: "COc1ccc(C(C)(C)C)cc1CN[C@H]1[C@H](C(C)(C)C)[C@@H](C(=O)O)N(C(=O)[C@@H]2CCCCO2)[C@H]1c1cccnc1N(C)C"
  EC50: "1 to 10 µM"
- compound: "COc1ccc(-c2cncnc2)cc1CN[C@H]1[C@H](C(C)(C)C)[C@@H](C(=O)O)N(C(=O)C2CCCCC2)[C@H]1c1ccccc1"
  EC50: "1 to 10 µM"

Given COc1cccc([C@@H]2[C@H](NCc3ccccc3OC(F)F)[C@@H](C(C)(C)C)[C@H](C(=O)O)N2C(=O)C2CCCCO2)n1 (mixture of isomers) , state its recorded EC50.
1 to 10 µM

Same lookup for Cc1cc(C(F)(F)F)cc(N[C@@H]2[C@@H](C(C)(C)C)[C@H](C(=O)O)N(C(=O)OC(C)C)[C@@H]2c2cccnc2N(C)C)n1 (racemic) , please.
1 to 10 µM

Same lookup for `COc1ccc(C(C)(C)C)cc1CN[C@H]1[C@H](C(C)(C)C)[C@@H](C(=O)O)N(C(=O)OC(C)C)[C@H]1c1ccccc1C` , please.
< 1 µM

Same lookup for COc1cc(C(F)(F)F)ccc1CN[C@@H]1[C@@H](C(C)(C)C)[C@H](C(=O)O)N(C(=O)C2CCCCC2)[C@@H]1c1ccccc1OC (stereo in doubt) [III-40] , please.
< 1 µM

Same lookup for COc1cc(C(F)(F)F)ccc1CN[C@@H]1[C@@H](C(C)(C)C)[C@H](C(=O)O)N(C(=O)C(C)c2ccccc2)[C@@H]1c1ccccc1 (single isomer, unassigned) , please.
1 to 10 µM
